System: Saccharomyces cerevisiae BY4741 SeMeCo community
assay-text: z-score of prototroph abundance vs DMSO median; higher = larger share of this subpopulation than in DMSO controls
setup-conditions: 10 µM; 24 h; SM minimal medium; subpopulation (auxotrophy): Prototroph
Counter-ions that a name gives are not always drawn.
Measured z-score of prototroph abundance of individual entries
# print the numeric value only

compound="CC[N+](CC)(CC)CCOc1cccc(OCC[N+](CC)(CC)CC)c1OCC[N+](CC)(CC)CC [Gallamine Triethiodide]" experimental_result=0.05

Query: Please provide the recorded z-score of prototroph abundance for CCN1CC(CCN2CCOCC2)C(c2ccccc2)(c2ccccc2)C1=O (centres undefined) [Doxapram HCl] , tested on Saccharomyces cerevisiae BY4741 SeMeCo community.
Reply: 0.14

Query: Item COc1ccc(C(Cl)=C(c2ccc(OC)cc2)c2ccc(OC)cc2)cc1 with Saccharomyces cerevisiae BY4741 SeMeCo community - z-score of prototroph abundance?
Reply: -0.67

Query: Enter reported z-score of prototroph abundance observed with Saccharomyces cerevisiae BY4741 SeMeCo community for O=C(O)C1=C(CSc2nnnn2CS(=O)(=O)O)CS[C@@H]2[C@H](NC(=O)[C@H](O)c3ccccc3)C(=O)N12 [Cefonicid sodium]
Reply: 0.12

---

System: Saccharomyces cerevisiae BY4741 SeMeCo community
assay-text: z-score of subpopulation abundance vs DMSO median, subpopulation auxotrophic for HLUM; higher = larger share of this subpopulation than in DMSO controls
setup-conditions: 10 µM; 24 h; SM minimal medium; subpopulation (auxotrophy): HLUM
Where a name gives a salt, the structure may show the parent alone.
Each record gets a class by z-score of subpopulation abundance: low class: < -0.4; middle class: ≥ -0.4 and < 0.2; high class: ≥ 0.2

compound="O=c1ccn(C2CC(O)C(CO)O2)c(=O)[nH]1 (configuration not stated)" target_or_test_system="Saccharomyces cerevisiae BY4741 SeMeCo community" category_label="middle class"
compound=NC(=O)C(c1ccccc1)(c1ccccc1)[C@@H]1CCN(CCc2ccc3c(c2)CCO3)C1 target_or_test_system="Saccharomyces cerevisiae BY4741 SeMeCo community" category_label="low class"
compound=Oc1c(I)cc(Cl)c2cccnc12 target_or_test_system="Saccharomyces cerevisiae BY4741 SeMeCo community" category_label="high class"
compound=CC(=O)[C@H]1CC[C@H]2[C@@H]3CCC4=CC(=O)CC[C@]4(C)[C@H]3CC[C@]12C target_or_test_system="Saccharomyces cerevisiae BY4741 SeMeCo community" category_label="low class"
compound="CCN(CC)CC#CCOC(=O)C(O)(c1ccccc1)C1CCCCC1 (configuration not stated) [Oxybutynin]" target_or_test_system="Saccharomyces cerevisiae BY4741 SeMeCo community" category_label="high class"
compound="CN1CC2c3ccccc3Oc3ccc(Cl)cc3C2C1 (configuration not stated) [Asenapine maleate]" target_or_test_system="Saccharomyces cerevisiae BY4741 SeMeCo community" category_label="high class"

Query: State the band of O=C1NCC2(CCN(CCc3ccccc3)CC2)O1 [Fenspiride HCl]
Reply: high class

Query: Pick a category. Item: Cc1ncc([N+](=O)[O-])n1CC(C)O (configuration not stated)
Reply: low class

Query: Which band does CC(=O)N1CCN(c2ccc(OCC3COC(Cn4ccnc4)(c4ccc(Cl)cc4Cl)O3)cc2)CC1 (configuration not stated) fall in?
Reply: low class

Query: Kindly state the category for this compound: CO[C@H]1C[C@@H]2CC[C@@H](C)[C@@](O)(O2)C(=O)C(=O)N2CCCC[C@H]2C(=O)O[C@H]([C@H](C)C[C@@H]2CC[C@@H](O)[C@H](OC)C2)CC(=O)[C@H](C)/C=C(\C)[C@@H](O)[C@@H](OC)C(=O)[C@H](C)C[C@H](C)/C=C/C=C/C=C/1C [Rapamycin (Sirolimus)]
Reply: high class

Query: Looking at C[N+]1(C)CCC(=C(c2ccccc2)c2ccccc2)CC1 [Diphemanil Methylsulfate] , which class would you pick?
Reply: middle class

Query: Could you place CCN1CCN(C(=O)N[C@@H](C(=O)N[C@@H]2C(=O)N3[C@@H]2SC(C)(C)[C@@H]3C(=O)O)c2ccccc2)C(=O)C1=O [Piperacillin Sodium] in its proper category? Many thanks.
Reply: middle class

Query: Classify this compound: CCCc1nn(C)c2c(=O)[nH]c(-c3cc(S(=O)(=O)N4CCN(C)CC4)ccc3OCC)nc12 [Sildenafil]
Reply: high class

---

Reported z-score of subpopulation abundance values for the following molecules.
Test system: Saccharomyces cerevisiae BY4741 SeMeCo community
assay-text: z-score of subpopulation abundance vs DMSO median, subpopulation auxotrophic for L; higher = larger share of this subpopulation than in DMSO controls
setup-conditions: 10 µM; 24 h; SM minimal medium; subpopulation (auxotrophy): L
Returns: the value as a bare number; no unit string appended.

molecule=COc1cc2c(cc1OC)[C@@H]1Cc3ccc(OC)c(OC)c3CN1CC2 target_or_test_system="Saccharomyces cerevisiae BY4741 SeMeCo community" experimental_result=-0.28
molecule="C[C@H]1c2cccc(O)c2C(O)=C2C(=O)[C@]3(O)C(O)=C(C(N)=O)C(=O)[C@@H](N(C)C)[C@@H]3[C@@H](O)[C@@H]21 [Doxycycline monohydrate]" target_or_test_system="Saccharomyces cerevisiae BY4741 SeMeCo community" experimental_result=0.54
molecule=COc1ccc(CNc2nc(N3CCC[C@H]3CO)ncc2C(=O)NCc2ncccn2)cc1Cl target_or_test_system="Saccharomyces cerevisiae BY4741 SeMeCo community" experimental_result=-0.77
molecule="COC1C(O)CC(=O)OC(C)CC=CC=CC(OC2CCC(N(C)C)C(C)O2)C(C)CC(CC=O)C1OC1OC(C)C(OC2CC(C)(O)C(O)C(C)O2)C(N(C)C)C1O (configuration not stated)" target_or_test_system="Saccharomyces cerevisiae BY4741 SeMeCo community" experimental_result=-0.29
molecule=C#C[C@]1(O)CC[C@H]2[C@@H]3CCC4=CCCC[C@@H]4[C@H]3C(=C)C[C@@]21CC target_or_test_system="Saccharomyces cerevisiae BY4741 SeMeCo community" experimental_result=-0.12
molecule=O=c1c(-c2ccc(O)cc2)coc2c([C@@H]3O[C@H](CO)[C@@H](O)[C@H](O)[C@H]3O)c(O)ccc12 target_or_test_system="Saccharomyces cerevisiae BY4741 SeMeCo community" experimental_result=-0.61

Query: Field request: z-score of subpopulation abundance | item: COc1ccc2[nH]c([S+]([O-])Cc3ncc(C)c(OC)c3C)nc2c1 (configuration not stated) [Omeprazole Sodium]
Reply: 0.3

---

System: Saccharomyces cerevisiae BY4741 SeMeCo community
assay-text: z-score of subpopulation abundance vs DMSO median, subpopulation auxotrophic for U; higher = larger share of this subpopulation than in DMSO controls
setup-conditions: 10 µM; 24 h; SM minimal medium; subpopulation (auxotrophy): U
Structures can show the parent of a compound that is named as a salt.
Classify as follows. Reported z-score of subpopulation abundance greater than or equal to -0.2: MET. Reported z-score of subpopulation abundance below: NOT MET.

Before answering, review these 2 worked examples.
molecule="CCCOc1ccc(C(=O)OCCN(CC)CC)cc1N [Proparacaine HCl]" category_label=MET
molecule="Cc1c(S(=O)(=O)O)oc2c1C(=O)C(=O)c1c-2ccc2c1CCCC2(C)C [Tanshinone IIA sulfonate (sodium)]" category_label="NOT MET"

Query: Threshold query (z-score of subpopulation abundance >= -0.2) on c1ccc(-c2ccc(C(c3ccccc3)n3ccnc3)cc2)cc1 (stereo not drawn)
Reply: NOT MET

Query: Reported z-score of subpopulation abundance reaches at least -0.2 for O=C(O)CCCCCCCC(=O)O ?
Reply: MET

Query: Has Cc1cc(CC(C)CC(C)(C)C)n(O)c(=O)c1 (stereo not drawn) a recorded z-score of subpopulation abundance greater than or equal to -0.2?
Reply: MET

Query: Determine whether measured z-score of subpopulation abundance meets or exceeds -0.2 for CCOC(=O)C1=C(C)NC(C)=C(C(=O)OC)C1c1cccc(Cl)c1Cl (stereo not drawn)
Reply: NOT MET

Query: Is reported z-score of subpopulation abundance greater than or equal to -0.2 here: CC[C@H](C)C(=O)O[C@H]1C[C@H](O)C=C2C=C[C@H](C)[C@H](CC[C@@H](O)C[C@@H](O)CC(=O)O)[C@H]21 [Pravastatin]
Reply: MET

Query: Has OC(c1ccccc1)(c1ccccc1)C12CC[N+](CCOCc3ccccc3)(CC1)CC2 [Umeclidinium bromide] a recorded z-score of subpopulation abundance greater than or equal to -0.2?
Reply: NOT MET

---

Tested on: Saccharomyces cerevisiae BY4741 SeMeCo community
assay-text: z-score of subpopulation abundance vs DMSO median, subpopulation auxotrophic for H; higher = larger share of this subpopulation than in DMSO controls
setup-conditions: 10 µM; 24 h; SM minimal medium; subpopulation (auxotrophy): H
molecules and their reported z-score of subpopulation abundance
I only need the number, thanks.

molecule=CCCCCCCCCCCCCCCCCCOP(=O)([O-])OC1CC[N+](C)(C)CC1 experimental_result=3.48

Next molecule, please.
Query: Fill blank: measured z-score of subpopulation abundance of the molecule CC(C(=O)O)c1ccc2c(c1)Cc1cccnc1O2 (configuration not stated) is ____.
Reply: -0.08
